- system: 16S ribosomal RNA A-site
- protocol-description: Fluorescence anisotropy competition with Rev-N-rhodamine probe, binding to 16S A-site
- protocol-conditions: 20° C., pH 7.4, read-out: Dissociation constant, 16S A-site
- Description: Binding force to each target hairpin RNA (IRES, RRE, TAR and 16S A-site) was measured by fluorescence polarization using alanine scanned peptide library (1b-1h). Particularly, […] of each target RNA was prepared at the concentration of 10 mM, which stood at 65° C. for 10 minutes and then cooled down slowly at room temperature, leading to folding. […] As a probe, rev peptide labeled with rhodamine (Rev-N-rhodamine) emitting […] fluorescence was prepared at the concentration of 10 mM. […]
parameter: log10 Kd (log10 of the value in nM)
Base-10 log of Kd, unit nM.

Item: LKKLLALLKKLLKLKG [peptide 1d, alanine scanned first generation peptide] | log10 Kd: 2.20

Item: LKALLKLLKKLLKLKG [1c, alanine scanned first generation peptide] | log10 Kd: 1.96

Item: LKKLLKLLKKLLKLKG [1a, original amphiphilic 16-mer peptide] | log10 Kd: 2.00

Item: LKKLLKWLKKLLKLAG [2q, tryptophan scanned second generation peptide] | log10 Kd: 1.23

Item: LKKLWKLLKKLLKLAG [2p, tryptophan scanned second generation peptide] | log10 Kd: 1.08

Item: LKKLLKLLKKWLKLAG [2s, tryptophan scanned second generation peptide] | log10 Kd: 1.38

Item: LKKLLKLLKKLLALKG [1g, alanine scanned first generation peptide] | log10 Kd: 2.30

Item: LKKLLKLLKKLLKLAG [1h, alanine scanned first generation peptide] | log10 Kd: 1.72

Item: LKKLLKLLKKLWKLAG [2t, tryptophan scanned second generation peptide] | log10 Kd: 1.23

Item: LAKLLKLLKKLLKLKG [1b, alanine scanned first generation peptide] | log10 Kd: 2.20

Item: LKKLLKLLKALLKLKG [1f, alanine scanned first generation peptide] | log10 Kd: 1.81

Item: LKKWLKLLKKLLKLAG [2o, tryptophan scanned second generation peptide] | log10 Kd: 1.18

Item: LKKLLKLLAKLLKLKG [1e, alanine scanned first generation peptide] | log10 Kd: 2.26

Item: WKKLLKLLKKLLKLAG [2n, tryptophan scanned second generation peptide] | log10 Kd: -0.12

Item: LKKLLKLWKKLLKLAG [2r, tryptophan scanned second generation peptide] | log10 Kd: 1.81

Item: LKKLLKLLKKLLKWAG [2u, tryptophan scanned second generation peptide] | log10 Kd: 0.52

----------
I'd appreciate it if you could supply Kd values for the items below.
- system: RRE hairpin RNA
- protocol-description: Fluorescence anisotropy competition with Rev-N-rhodamine probe, binding to RRE hairpin RNA
- Design: species or system HIV
- protocol-conditions: 20° C., pH 7.4, read-out: Dissociation constant, RRE
- Method: Binding force to each target hairpin RNA (IRES, RRE, TAR and 16S A-site) was measured by fluorescence polarization using alanine scanned peptide library (1b-1h). Particularly, […] of each target RNA was prepared at the concentration of 10 mM, which stood at 65° C. for 10 minutes and then cooled down slowly at room temperature, leading to folding. […] As a probe, rev peptide labeled with rhodamine (Rev-N-rhodamine) emitting […] fluorescence was prepared at the concentration of 10 mM. […]
// note: answer is a bare numeric in µM

Item: LAKLLKLLKKLLKLKG [1b, alanine scanned first generation peptide] | Kd: 0.14

Item: LKKWLKLLKKLLKLAG [2o, tryptophan scanned second generation peptide] | Kd: 0.0059

Item: LKKLWKLLKKLLKLAG [2p, tryptophan scanned second generation peptide] | Kd: 0.0062

Item: LKKLLKLLKKLLKLAG [1h, alanine scanned first generation peptide] | Kd: 0.025

----------
- system: RRE hairpin RNA
- protocol-description: Fluorescence anisotropy competition with Rev-N-rhodamine probe, binding to RRE hairpin RNA
- Design: species or system HIV
- protocol-conditions: 20° C., pH 7.4, read-out: Dissociation constant, RRE
parameter: log10 of Kd (log10 of the value in µM)
Base-10 log of Kd, unit µM.

Item LKKLLKWLKKLLKLAG [2q, tryptophan scanned second generation peptide] ; assay system RRE hairpin RNA; log10 of Kd reported as -2.92

Item LKKLLKLLKKLWKLAG [2t, tryptophan scanned second generation peptide] ; assay system RRE hairpin RNA; log10 of Kd reported as -1.89

Item LKKLLKLLKALLKLKG [1f, alanine scanned first generation peptide] ; assay system RRE hairpin RNA; log10 of Kd reported as -1.04

Item LKALLKLLKKLLKLKG [1c, alanine scanned first generation peptide] ; assay system RRE hairpin RNA; log10 of Kd reported as -1.25

Item LKKLLALLKKLLKLKG [peptide 1d, alanine scanned first generation peptide] ; assay system RRE hairpin RNA; log10 of Kd reported as -0.82

Item WKKLLKLLKKLLKLAG [2n, tryptophan scanned second generation peptide] ; assay system RRE hairpin RNA; log10 of Kd reported as -2.60

Item LKKLLKLLKKLLKLKG [1a, original amphiphilic 16-mer peptide] ; assay system RRE hairpin RNA; log10 of Kd reported as -1.66

Item LKKLLKLLKKLLKWAG [2u, tryptophan scanned second generation peptide] ; assay system RRE hairpin RNA; log10 of Kd reported as -1.74

Item LKKLLKLWKKLLKLAG [2r, tryptophan scanned second generation peptide] ; assay system RRE hairpin RNA; log10 of Kd reported as -1.43

Item LKKLLKLLKKLLALKG [1g, alanine scanned first generation peptide] ; assay system RRE hairpin RNA; log10 of Kd reported as -1.05

Item LKKLLKLLKKWLKLAG [2s, tryptophan scanned second generation peptide] ; assay system RRE hairpin RNA; log10 of Kd reported as -2.02

Item LKKLLKLLAKLLKLKG [1e, alanine scanned first generation peptide] ; assay system RRE hairpin RNA; log10 of Kd reported as -0.89

Value source: patent US8084399B2
